# ΔTm at 12.5 µM listing for each entry below
Target: purified recombinant human HSF1 (HSF1 DNA binding domain) (Homo sapiens, UniProt Q00613)
Sequence (Q00613 15-120): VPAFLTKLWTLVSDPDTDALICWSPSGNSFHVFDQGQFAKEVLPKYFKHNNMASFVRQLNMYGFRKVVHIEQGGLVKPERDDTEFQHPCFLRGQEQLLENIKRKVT
Experiment: Melting temperature of HSF1 DBD with HSF1 degrader compounds (Sypro orange)
Conditions: 12.5 micromolar compound, 5 micromolar HSF1 DBD, compared to DMSO; read-out: ΔTm (° C.)
measured_quantity: ΔTm at 12.5 µM (°C)

COc1cc(NC(=O)Nc2ccc(Cl)c([N+](=O)[O-])c2)ccc1C#N    2.63
N#Cc1ccc(NC(=O)Nc2ccc(Cl)c(S(=O)(=O)C(F)(F)F)c2)cc1C(F)(F)F    1.62
N#Cc1ccc(NC(=O)Nc2ccc3c(c2)S(=O)(=O)C=C3)cn1    0.84
CC(C)(C)c1cc(NC(=O)Nc2ccc3c(c2)S(=O)(=O)C=C3)ccc1C#N    1.27

====

Assay: Rat liver microsome stability
Type: in vitro ADME
Conditions: rat liver microsomes, 37° C., read-out: Microsome Stability T1/2
# half-life at 1 μM listing for each entry below
measured_quantity: half-life at 1 μM (h)

N#Cc1ccc(NC(=O)Nc2ccc(Cl)c(S(=O)(=O)C(F)(F)F)c2)cc1    2.56
N#Cc1ccc(NC(=O)Nc2ccc(Cl)c(C(F)(F)F)c2)cc1    14.9
N#Cc1ccc(NC(=O)Nc2ccc3c(c2)S(=O)(=O)C=C3)cc1    2.58
N#Cc1ccc(NC(=O)Nc2ccc(Cl)c(S(=O)(=O)C(F)(F)F)c2)cc1C(F)(F)F    6.16
N#Cc1ccc(NC(=O)Nc2ccc(Cl)c(C(F)(F)F)c2)cc1C(F)(F)F    10.6
O=C(Nc1ccc(F)cc1)Nc1ccc(Cl)c([N+](=O)[O-])c1    1.54
N#Cc1ccc(NC(=O)Nc2ccc3c(c2)S(=O)(=O)C=C3)cc1C(F)(F)F    1.23

====

Target: purified recombinant human HSF1 (HSF1 DNA binding domain) (Homo sapiens)
Assay: Melting temperature of HSF1 DBD with HSF1 degrader compounds (Sypro orange)
Details: read-out: ΔTm (° C.)
Method: The melting temperature (ΔTm) for purified recombinant human HSF1 (HSF1 DNA binding domain) was determined in the presence of HSF1 degrader compounds shown in Table 5 and compared to the solvent DMSO. […] Melting curves were obtained and analyzed using the ThermnoFisher Shift Software 1.4 fitted with a Boltzmann equation to determine the change in melting temperature of the protein in the presence of DMSO as compared to compound. […]
Give Met when the value for ΔTm at 12.5 µM is at least 0.4 °C. Give Not met when it is less.

N#Cc1ccc(NC(=O)Nc2ccc(C#N)c(C(F)(F)F)c2)cc1C(F)(F)F    Met
N#Cc1ccc(NC(=O)Nc2ccc3c(c2)S(=O)(=O)C=C3)cc1CN1CCOCC1    Not met
N#Cc1ccc(NC(=O)Nc2ccc(Cl)c(S(=O)(=O)C(F)(F)F)c2)cc1CN1CCOCC1    Met
N#Cc1ccc(NC(=O)Nc2ccc(Cl)c([N+](=O)[O-])c2)cc1C(F)(F)F    Met
N#Cc1ccc(NC(=O)Nc2ccc(CN3CCOCC3)c(S(=O)(=O)C(F)(F)F)c2)cc1    Met
N#Cc1ccc(NC(=O)Nc2ccc(OCCN3CCOCC3)c(S(=O)(=O)C(F)(F)F)c2)cc1    Met
CN(C)CCc1cc(NC(=O)Nc2ccc(Cl)c(S(=O)(=O)C(F)(F)F)c2)ccc1C#N    Met
N#Cc1ccc(NC(=O)Nc2ccc(Cl)c(S(=O)(=O)C(F)(F)F)c2)cc1CCN1CCOCC1    Met
N#Cc1ccc(NC(=O)Nc2ccc(F)cc2)cc1C(F)(F)F    Met
CN(C)CCc1cc(C#N)ccc1NC(=O)Nc1ccc(Cl)c(S(=O)(=O)C(F)(F)F)c1    Met
CN(C)CCc1cc(NC(=O)Nc2ccc3c(c2)S(=O)(=O)C=C3)ccc1C#N    Not met
N#Cc1ccc(NC(=O)Nc2ccc3c(c2)S(=O)(=O)C=C3)cc1CCN1CCOCC1    Not met
N#Cc1ccc(NC(=O)Nc2ccc(Cl)c(S(=O)(=O)C(F)(F)F)c2)cc1OCCN1CCOCC1    Met
N#CC1CCC(NC(=O)Nc2ccc(Cl)c(C(F)(F)F)c2)CC1 (stereo not drawn)    Not met
N#Cc1ccc(NC(=O)Nc2ccc3c(c2)S(=O)(=O)C=C3)cc1OCCN1CCOCC1    Not met
